- experiment: BSK_SAg_PBMCCytotoxicity: PBMC Cytotoxicity Assessment in the BioMAP Diversity Plus: SAg Assay (AID 2283093);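 also: PBMC viability measured as Alamar Blue reduction fluorescence at 546/580 nm; fitted both ways against DMSO so a hit may be loss or gain of signal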
- settings: primary human HUVEC with PBMC
Active and inactive are the calls of the source. The calls were made as follows: active = hit-call score of the fitted dose curve at least 0.9, where 1 is the maximum; inactive = score below 0.9.
I would appreciate it if you answered using one of these outcomes: active, inactive

Please let me know the test result on file for C#C[C@]1(O)CC[C@H]2[C@@H]3CCc4cc(O)ccc4[C@H]3CC[C@@]21C .
inactive

Please let me know the test result on file for CCCCN(CCO)CCO .
inactive

Please let me know the test result on file for O=S1(=O)CC(Cl)(Cl)C(Cl)(Cl)C1 .
active

Please let me know the test result on file for CC(C)Cc1ccc(C(C)C(=O)O)cc1 (stereo not drawn) .
inactive

Please let me know the test result on file for COc1ccccc1NC(=O)CC(C)=O .
inactive

Please let me know the test result on file for CCCCCCCCCCCCS .
inactive

Please let me know the test result on file for CC(C)(C)c1cccc(O)c1 .
inactive

Please let me know the test result on file for CCCO[Si](OCCC)(OCCC)OCCC .
inactive

Please let me know the test result on file for CC1(C)[C@H](C=C(Cl)Cl)[C@H]1C(=O)OCc1cccc(Oc2ccccc2)c1 .
inactive

Please let me know the test result on file for C=C(C)C(N)=O .
inactive

Please let me know the test result on file for C[C@]12CC[C@@H]3c4ccc(O)cc4CC[C@H]3[C@@H]1CC[C@@H]2O .
inactive

Please let me know the test result on file for CC(=O)OCC=C(C)CCC=C(C)CCC=C(C)C .
inactive

Please let me know the test result on file for O=C(O)C(F)(F)C(F)(F)C(F)(F)C(F)(F)C(F)(F)C(F)(F)C(F)(F)C(F)F .
inactive

Please let me know the test result on file for CCn1cc(C(=O)O)c(=O)c2ccc(C)nc21 .
inactive

Please let me know the test result on file for O=C(O)C(F)(F)OC(F)(F)C(F)(F)OC(F)(F)C(F)(F)C(F)(F)C(F)(F)F .
inactive

Please let me know the test result on file for c1ccc2c(c1)-c1ccc3ccc4cccc5cc-2c1c3c45 .
inactive

Please let me know the test result on file for C=CC(=O)OCC(CO)(COC(=O)C=C)COC(=O)C=C .
active

Please let me know the test result on file for CCCCCCCC1CCCC1=O (stereo not drawn) .
inactive

Please let me know the test result on file for CCCCOCCOCCO .
inactive

Please let me know the test result on file for CC1=CC(C)C(C=O)C(C)C1 (stereo not drawn) (tested in a mixture with another compound) .
inactive

Please let me know the test result on file for CC(=O)c1ccc(C)cc1 .
inactive

Please let me know the test result on file for O=C1OC2(c3ccc(O)cc3Oc3cc(O)ccc32)c2ccccc21 .
inactive

Please let me know the test result on file for CC(C)(CO)CO .
inactive

Please let me know the test result on file for O=S(=O)(O)C(F)(F)C(F)(F)OC(F)(F)C(F)(F)F .
inactive

Please let me know the test result on file for CCOC(=O)CCCCCCCCC(=O)OCC .
inactive

Please let me know the test result on file for OCCN1CCOCC1 .
inactive

Please let me know the test result on file for c1ccc(Sc2ccccc2)cc1 .
active

Please let me know the test result on file for CCCCCCCCCC(=O)OCC .
active

* * *

- target_system: human RAR-related Orphan Receptor gamma (RORg), RORC (gene 6097) (UniProt P51449)
- Sequence (P51449 whole entry, looked up): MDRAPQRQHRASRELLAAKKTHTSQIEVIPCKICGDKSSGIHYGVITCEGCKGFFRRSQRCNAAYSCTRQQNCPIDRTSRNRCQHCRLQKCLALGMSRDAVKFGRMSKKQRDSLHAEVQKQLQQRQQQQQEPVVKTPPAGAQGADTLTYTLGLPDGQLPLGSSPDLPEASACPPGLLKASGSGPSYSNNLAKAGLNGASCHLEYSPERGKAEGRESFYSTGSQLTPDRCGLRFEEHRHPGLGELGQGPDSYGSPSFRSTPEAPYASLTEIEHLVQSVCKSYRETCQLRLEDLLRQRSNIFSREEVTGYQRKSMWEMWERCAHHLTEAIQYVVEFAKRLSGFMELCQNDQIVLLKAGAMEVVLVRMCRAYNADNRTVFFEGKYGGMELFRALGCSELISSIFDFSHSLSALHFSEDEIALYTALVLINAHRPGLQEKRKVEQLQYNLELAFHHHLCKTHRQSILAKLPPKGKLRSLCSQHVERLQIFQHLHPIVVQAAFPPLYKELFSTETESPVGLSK
- experiment: ATG_RORg_TRANS: Attagene TRANS-FACTORIAL HepG2 Assay for human RAR-related Orphan Receptor gamma (RORg) (AID 2283011)
Records with an inconclusive call do not appear. Calls of active or inactive are those of the source. Rule for the calls: active = hit-call score of the fitted dose curve at least 0.9, where 1 is the maximum; inconclusive = response in the unintended direction; inactive = score below 0.9.
measurement_type: outcome

Recorded outcome, per entry:
>>> observed_result("COc1ccc(OC)cc1")
"inactive"
>>> observed_result("CCCCCCCCCCCCOC(C)=O")
"inactive"
>>> observed_result("CCCCCCCCCCCCS")
"inactive"
>>> observed_result("N#CCCNCCC#N")
"inactive"
>>> observed_result("CC(C)COC(=O)c1ccccc1O")
"inactive"
>>> observed_result("[O-]/[N+](=N\\O)c1ccccc1")
"inactive"

The value of outcome measured for the compound CN(C)C(=O)Nc1ccccc1 turned out to be inactive

The value of outcome measured for the compound O=C(O)c1ccccc1O turned out to be inactive

* * *

- Read-out: Cyclin Dependent Kinase Inhibitor 1A (CDKN1A), CDKN1A (gene 1026)
- experiment: LTEA_HepaRG_CDKN1A: Life Technologies and Expression Analysis (LTEA) Assay for Cyclin Dependent Kinase Inhibitor 1A (CDKN1A) using HepaRG (AID 2283450)
- settings: mRNA level, 48 h; actives raise or lower the signal
Active and inactive are the calls of the source. The calls were made as follows: active = hit-call score of the fitted dose curve at least 0.9, where 1 is the maximum; inactive = score below 0.9.
measurement_type: AC50

>>> observed_result("C=C(C)C(N)=O")
"inactive"
>>> observed_result("COC(=O)c1ccc(C(=O)OC)cc1")
"inactive"
>>> observed_result("CC/C(=C(\\c1ccccc1)c1ccc(OCCN(C)C)cc1)c1ccccc1")
"inactive"
>>> observed_result("C[C@]12CC[C@@H]3c4ccc(O)cc4CC[C@H]3[C@@H]1CC[C@@H]2O")
"80.3 µM (active)"

* * *

- experiment: ATG_MRE_CIS: Attagene CIS-FACTORIAL HepG2 Assay for human Metal Responsive Element (MRE) (AID 2282954)
- settings: HepG2 MRE cis-reporter transcription, Attagene multiplex; actives raise or lower the signal
The source made the active and inactive calls. Rule for the calls: active = hit-call score of the fitted dose curve at least 0.9, where 1 is the maximum; inactive = score below 0.9.
measurement_type: AC50

Recorded AC50, per entry:
>>> observed_result("Cc1ccccc1S")
"102 µM (active)"
>>> observed_result("CCCCOCCOC(=O)c1ccccc1C(=O)OCCOCCCC")
"23.4 µM (active)"
>>> observed_result("CC(=O)c1ccc2ccccc2c1")
"inactive"
>>> observed_result("CC(C)OB(OC(C)C)OC(C)C")
"inactive"
>>> observed_result("C1CCCNCC1")
"inactive"

Okay, now this compound:
The value of AC50 measured for the compound C=CCOC(=O)/C=C\C(=O)OCC=C turned out to be 39.5 µM (active)

* * *

- target_system: Retinoic acid receptor RXR-alpha (Homo sapiens) (UniProt P19793)
- Sequence (P19793 whole entry, looked up): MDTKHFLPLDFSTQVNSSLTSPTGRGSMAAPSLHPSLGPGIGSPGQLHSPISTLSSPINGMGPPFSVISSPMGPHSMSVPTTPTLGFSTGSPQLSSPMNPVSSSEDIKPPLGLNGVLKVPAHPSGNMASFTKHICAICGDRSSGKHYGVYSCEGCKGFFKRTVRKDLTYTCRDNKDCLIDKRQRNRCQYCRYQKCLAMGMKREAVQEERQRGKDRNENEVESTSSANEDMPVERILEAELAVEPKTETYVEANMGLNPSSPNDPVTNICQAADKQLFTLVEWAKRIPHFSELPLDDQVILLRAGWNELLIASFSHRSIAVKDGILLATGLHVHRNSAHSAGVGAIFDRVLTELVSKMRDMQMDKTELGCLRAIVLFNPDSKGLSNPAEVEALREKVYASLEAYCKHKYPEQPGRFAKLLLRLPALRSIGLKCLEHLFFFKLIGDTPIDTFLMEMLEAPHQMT
- experiment: OT_NURR1_NURR1RXRa_1440: Odyssey Thera (OT) 24-hour HEK293T Protein Complementation Assay for Nurr1/retinoid X receptor (RXR) (AID 2283386)
Inconclusive results are not listed. Calls of active or inactive are those of the source. Rule for the calls: active = hit-call score of the fitted dose curve at least 0.9, where 1 is the maximum; inconclusive = response in the unintended direction; inactive = score below 0.9.
measurement_type: outcome

Recorded outcome, per entry:
>>> observed_result("CCC(C)(C)C1CCC(OC)CC1 (stereo not drawn)")
"inactive"
>>> observed_result("CC(=O)Nc1cc(S(=O)(=O)O)cc2cc(S(=O)(=O)O)c(N=Nc3ccccc3)c(O)c12")
"inactive"
>>> observed_result("CC(=O)c1ccc2ccccc2c1")
"inactive"
>>> observed_result("CCc1cccc(O)c1")
"inactive"
>>> observed_result("CCCc1ccc(N)cc1")
"inactive"
>>> observed_result("CCCCOCCOCCO")
"inactive"
>>> observed_result("NC(N)=S")
"inactive"

The value of outcome measured for the compound CCOCC(C)O (stereo not drawn) turned out to be inactive

* * *

- experiment: ATG_CMV_CIS: Attagene CIS-FACTORIAL HepG2 Assay for human CMV (Internal Marker) (AID 2282928);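 also: endpoint acts as a background internal control marker rather than a target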
- settings: HepG2 CMV promoter reporter, transcription factor profiling; actives raise or lower the signal
Calls of active or inactive are those of the source. The calls were made as follows: active = hit-call score of the fitted dose curve at least 0.9, where 1 is the maximum; inactive = score below 0.9.
I would appreciate it if you answered using one of these outcomes: active, inactive

Please let me know the test result on file for CC(C)COC(=O)c1ccccc1 .
inactive

Please let me know the test result on file for CCCCCCOC(C)=O .
inactive

Please let me know the test result on file for CCCC1CCC(=O)CC1 .
inactive

Please let me know the test result on file for CCCCCCC(C)O (centres undefined) .
inactive

Please let me know the test result on file for CCOC(=O)CC1(C)OCC(C)O1 (centres undefined) .
inactive

Please let me know the test result on file for c1ccc2scnc2c1 .
inactive

Please let me know the test result on file for OCC=Cc1ccccc1 .
inactive

Please let me know the test result on file for C[N+](C)(C)CCO .
inactive

Please let me know the test result on file for CC(=O)OCC=C(C)CCC=C(C)CCC=C(C)C .
active

* * *

- Read-out: Forkhead box O3 (FOXO3), FOXO3 (gene 2309)
- experiment: LTEA_HepaRG_FOXO3: Life Technologies and Expression Analysis (LTEA) Assay for Forkhead box O3 (FOXO3) using HepaRG (AID 2283459)
- settings: mRNA level, 48 h; actives raise or lower the signal
Active and inactive are the calls of the source. The calls were made as follows: active = hit-call score of the fitted dose curve at least 0.9, where 1 is the maximum; inactive = score below 0.9.
measurement_type: outcome

>>> observed_result("COC(=O)c1ccc(C(=O)OC)cc1")
"inactive"
>>> observed_result("CCCCOCCOCCO")
"inactive"
>>> observed_result("C[C@]12CC[C@@H]3c4ccc(O)cc4CC[C@H]3[C@@H]1CC[C@@H]2O")
"inactive"
>>> observed_result("O=C(c1ccc(OCCN2CCCCC2)cc1)c1c(-c2ccc(O)cc2)sc2cc(O)ccc12")
"inactive"
